Protein target, amino acids: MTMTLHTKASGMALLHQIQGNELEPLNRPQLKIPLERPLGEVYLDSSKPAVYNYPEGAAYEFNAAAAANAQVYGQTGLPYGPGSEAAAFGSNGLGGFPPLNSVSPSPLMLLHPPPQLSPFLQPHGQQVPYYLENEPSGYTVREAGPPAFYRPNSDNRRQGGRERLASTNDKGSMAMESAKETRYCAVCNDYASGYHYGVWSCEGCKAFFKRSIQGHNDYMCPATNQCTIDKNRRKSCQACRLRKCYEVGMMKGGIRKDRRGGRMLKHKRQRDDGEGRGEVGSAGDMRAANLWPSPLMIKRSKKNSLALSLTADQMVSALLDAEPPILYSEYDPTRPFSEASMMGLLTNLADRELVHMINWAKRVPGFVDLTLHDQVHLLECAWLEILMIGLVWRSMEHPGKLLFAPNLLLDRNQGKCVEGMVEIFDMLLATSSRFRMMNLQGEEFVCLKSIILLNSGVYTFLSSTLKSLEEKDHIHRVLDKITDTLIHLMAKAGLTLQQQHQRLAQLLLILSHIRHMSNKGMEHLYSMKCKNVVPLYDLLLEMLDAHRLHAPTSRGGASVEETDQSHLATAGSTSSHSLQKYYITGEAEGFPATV
MEASURE: IC50 (nM)

(A) CC1(C)c2cc(O)ccc2N(Cc2ccc(OCCN3CCCCCC3)cc2)C1c1ccccc1 (stereo not drawn)
(B) CC1(C)c2cc(O)ccc2N(Cc2ccc(OCCN3CCCCCC3)cc2)C1(c1ccccc1)c1ccc(O)cc1 (stereo not drawn)
Identify the entry with the larger IC50. Options: A and B Reply with the label of the item you choose.
A
